Experiment: growth suppression of yeast trafficking mutant, preliminary HTS, modulators of trafficking downstream of Golgi apparatus project, 1536-format plate, OD 615 nm (AID 637); further: test concentration not given here
Conditions: yeast transport mutant growth, absorbance 615 nm, 18 h; hits give high values
Documented inhibition across a set of molecules
Quick note: give the figure in %, leave out the unit.

>  <Molecule>
CCC(C)OC(=O)C1=C(C)NC2=C(C(=O)C(C(=O)OC)C(C)C2)C1c1ccc(N(C)C)cc1 (centres undefined)

>  <Meas value>
-5.09

$$$$
>  <Molecule>
CC1=C(C(=O)OC(C)C)C(c2cccc(F)c2)n2ncnc2N1 (centres undefined)

>  <Meas value>
3.83

$$$$
>  <Molecule>
CCCCc1cc2c(c(NC(C)=O)n1)c(=O)oc1ccccc12

>  <Meas value>
-4

$$$$
>  <Molecule>
COC(=O)Cn1ncc2c(C)n(Cc3ccccc3)c(C)c2c1=O

>  <Meas value>
2

$$$$
>  <Molecule>
C=CCNC(=O)CSc1nc2sc(C)c(C)c2c(=O)[nH]1

>  <Meas value>
1

$$$$

Moving on to another molecule below.
Please look up its inhibition: COC(=O)CSC1=C(C#N)C(c2ccc(F)cc2)CC(=O)N1 (centres undefined)
-4.75
